Provenance of the data: ChEMBL document CHEMBL3608246

# ASSAY_TARGET: Cytochrome P450 2C9 (Homo sapiens, UniProt P11712)
# Sequence (P11712 whole entry): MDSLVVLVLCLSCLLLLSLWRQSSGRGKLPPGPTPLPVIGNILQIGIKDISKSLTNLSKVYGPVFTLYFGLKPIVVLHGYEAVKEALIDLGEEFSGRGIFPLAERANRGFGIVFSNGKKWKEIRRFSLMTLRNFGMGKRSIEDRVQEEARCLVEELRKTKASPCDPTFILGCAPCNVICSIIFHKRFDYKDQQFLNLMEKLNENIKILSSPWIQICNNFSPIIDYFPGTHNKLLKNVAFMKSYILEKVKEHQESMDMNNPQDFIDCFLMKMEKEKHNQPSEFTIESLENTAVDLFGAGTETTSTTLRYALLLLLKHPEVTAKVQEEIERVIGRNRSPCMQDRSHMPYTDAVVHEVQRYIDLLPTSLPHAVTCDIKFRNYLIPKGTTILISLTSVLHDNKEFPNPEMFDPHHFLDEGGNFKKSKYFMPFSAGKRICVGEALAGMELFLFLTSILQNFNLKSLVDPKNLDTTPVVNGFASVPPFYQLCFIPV
# PROTOCOL_TEXT: Inhibition of human CYP2C9 by luminometry
Simple rule here: EC50 less than 300 nM is 1 (yes), otherwise 0 (no).

Just wondering, is EC50 of COC(=O)N[C@@H](C(=O)N1CCC[C@H]1C(=O)Nc1ccc(-c2ccc(NC(=O)[C@@H]3CCCN3C(=O)[C@H](NC(=O)OC)c3ccccc3)cc2C(F)(F)F)c(C(F)(F)F)c1)c1ccccc1 (stereo in doubt; form 1) below 300 nM?
0 (no)

###

# ASSAY_TARGET: Cytochrome P450 1A2 (Homo sapiens)
# Sequence (P05177 whole entry): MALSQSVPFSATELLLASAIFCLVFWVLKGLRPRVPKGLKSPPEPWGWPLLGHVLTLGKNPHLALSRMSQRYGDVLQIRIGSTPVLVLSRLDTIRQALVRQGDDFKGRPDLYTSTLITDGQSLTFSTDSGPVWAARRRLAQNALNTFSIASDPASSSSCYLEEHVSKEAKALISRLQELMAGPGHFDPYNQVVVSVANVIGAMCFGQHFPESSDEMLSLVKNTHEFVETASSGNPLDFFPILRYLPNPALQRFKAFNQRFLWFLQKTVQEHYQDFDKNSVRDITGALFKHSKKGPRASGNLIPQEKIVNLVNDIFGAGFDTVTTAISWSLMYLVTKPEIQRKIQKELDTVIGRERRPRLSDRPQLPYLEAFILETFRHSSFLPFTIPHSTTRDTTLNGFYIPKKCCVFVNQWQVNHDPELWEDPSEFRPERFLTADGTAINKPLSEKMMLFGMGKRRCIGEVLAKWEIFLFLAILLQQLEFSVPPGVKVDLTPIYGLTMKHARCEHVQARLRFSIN
# PROTOCOL_TEXT: Inhibition of human CYP1A2 by luminometry
# Format: ADME
ATTRIBUTE_MEASURED: pEC50
Numbers only, as −log10 of the molar value.

Annotate the compound `COC(=O)N[C@@H](C(=O)N1CCC[C@H]1C(=O)Nc1ccc(-c2ccc(NC(=O)[C@@H]3CCCN3C(=O)[C@H](NC(=O)OC)c3ccccc3)cc2Cl)c(Cl)c1)c1ccccc1` with its measured pEC50.
4.62

Next up:
Name the recorded pEC50 of the compound listed here: COC(=O)N[C@@H](C(=O)N1CCC[C@H]1C(=O)Nc1ccc(-c2ccc(NC(=O)[C@@H]3CCCN3C(=O)[C@H](NC(=O)OC)c3ccccc3)cc2C(F)(F)F)c(C(F)(F)F)c1)c1ccccc1 (stereo in doubt; form 1)
4.10
